# ASSAY OVERVIEW: Pharmacokinetic study in male ICR mice
# Type: in vivo, mouse
# SETUP CONDITIONS: male, ICR, mouse, plasma, iv, 2 mg/kg, male ICR mice, 2 mg/kg IV, individual animals (Mouse 1-3); read-out: Vz

>  <COMPOUND>
CC1(C)CCC(c2ccc(Cl)cc2)=C(CN2CCN(c3ccc(C(=O)NS(=O)(=O)c4ccc(NCCCN5CCN(CCCC#Cc6cccc7c6CN(C6CCC(=O)NC6=O)C7=O)CC5)c(S(=O)(=O)C(F)(F)F)c4)cc3)CC2)C1 (stereo not shown)

>  <Vd (L/kg)>
1.61

$$$$

---

# ASSAY OVERVIEW: Pharmacokinetic study in male ICR mice
# Assay type: in vivo, mouse
# SETUP CONDITIONS: male, ICR, mouse, plasma, ip, 10 mg/kg, male ICR mice, 10 mg/kg IP, mean of 3 animals

>  <COMPOUND>
CC1(C)CCC(c2ccc(Cl)cc2)=C(CN2CCN(c3ccc(C(=O)NS(=O)(=O)c4ccc(NCCCN5CCN(CCCC#Cc6cccc7c6CN(C6CCC(=O)NC6=O)C7=O)CC5)c(S(=O)(=O)C(F)(F)F)c4)cc3)CC2)C1 (stereo not shown) [SIAIS361034]

>  <AUC(0-inf) / ng·h/mL>
18200

$$$$

---

# ASSAY OVERVIEW: Pharmacokinetic study in male ICR mice
# Format: in vivo, mouse
# SETUP CONDITIONS: male, ICR, mouse, plasma, po, 10 mg/kg, male ICR mice, 10 mg/kg PO, mean of 3 animals; read-out: Cmax

>  <COMPOUND>
CC1(C)CCC(c2ccc(Cl)cc2)=C(CN2CCN(c3ccc(C(=O)NS(=O)(=O)c4ccc(NCCCN5CCN(CCCC#Cc6cccc7c6CN(C6CCC(=O)NC6=O)C7=O)CC5)c(S(=O)(=O)C(F)(F)F)c4)cc3)CC2)C1 (stereo not shown)

>  <Cmax>
0.0516 µg/mL

$$$$

---

# ASSAY OVERVIEW: Pharmacokinetic study in male ICR mice
# Type: in vivo, mouse
# SETUP CONDITIONS: male, ICR, mouse, plasma, ip, 10 mg/kg, male ICR mice, 10 mg/kg IP, individual animals (Mouse 1-3)
ASSAY READOUT: half-life

>  <COMPOUND>
CC1(C)CCC(c2ccc(Cl)cc2)=C(CN2CCN(c3ccc(C(=O)NS(=O)(=O)c4ccc(NCCCN5CCN(CCCC#Cc6cccc7c6CN(C6CCC(=O)NC6=O)C7=O)CC5)c(S(=O)(=O)C(F)(F)F)c4)cc3)CC2)C1 (stereo not shown)

>  <RESULT>
6.44 h

$$$$

---

# ASSAY OVERVIEW: Pharmacokinetic study in male ICR mice
# Type: in vivo, mouse
# SETUP CONDITIONS: male, ICR, mouse, plasma, iv, 2 mg/kg, male ICR mice, 2 mg/kg IV, individual animals (Mouse 1-3); read-out: Cmax

>  <MOLECULE>
CC1(C)CCC(c2ccc(Cl)cc2)=C(CN2CCN(c3ccc(C(=O)NS(=O)(=O)c4ccc(NCCCN5CCN(CCCC#Cc6cccc7c6CN(C6CCC(=O)NC6=O)C7=O)CC5)c(S(=O)(=O)C(F)(F)F)c4)cc3)CC2)C1 (stereo not shown)

>  <Cmax / ng/mL>
10300

$$$$

---

# ASSAY OVERVIEW: Pharmacokinetic study in male ICR mice
# Format: in vivo, mouse
# SETUP CONDITIONS: male, ICR, mouse, plasma, iv, 2 mg/kg, male ICR mice, 2 mg/kg IV, mean of 3 animals

>  <COMPOUND>
CC1(C)CCC(c2ccc(Cl)cc2)=C(CN2CCN(c3ccc(C(=O)NS(=O)(=O)c4ccc(NCCCN5CCN(CCCC#Cc6cccc7c6CN(C6CCC(=O)NC6=O)C7=O)CC5)c(S(=O)(=O)C(F)(F)F)c4)cc3)CC2)C1 (stereo not shown) [SIAIS361034]

>  <AUC(0-inf)>
4580 ng·h/mL

$$$$

// provenance: paper PMC9691367
